molecular target: Torsin-1A-interacting protein 2 (Homo sapiens) (UniProt Q8NFQ8); assay: LULL1 binders on small-molecule microarray, primary screen, cell lysate, human LULL1 lysate, 635/667 nm fluorescence (AID 1092); details: hLULL1 lysate binding, 635 nm fluorescence, higher = more signal;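 also: probe is lysate of COS7 cells overexpressing human LULL1; score merges per-feature 667 nm fluorescence with signal-to-noise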
Sequence (Q8NFQ8 whole entry, looked up): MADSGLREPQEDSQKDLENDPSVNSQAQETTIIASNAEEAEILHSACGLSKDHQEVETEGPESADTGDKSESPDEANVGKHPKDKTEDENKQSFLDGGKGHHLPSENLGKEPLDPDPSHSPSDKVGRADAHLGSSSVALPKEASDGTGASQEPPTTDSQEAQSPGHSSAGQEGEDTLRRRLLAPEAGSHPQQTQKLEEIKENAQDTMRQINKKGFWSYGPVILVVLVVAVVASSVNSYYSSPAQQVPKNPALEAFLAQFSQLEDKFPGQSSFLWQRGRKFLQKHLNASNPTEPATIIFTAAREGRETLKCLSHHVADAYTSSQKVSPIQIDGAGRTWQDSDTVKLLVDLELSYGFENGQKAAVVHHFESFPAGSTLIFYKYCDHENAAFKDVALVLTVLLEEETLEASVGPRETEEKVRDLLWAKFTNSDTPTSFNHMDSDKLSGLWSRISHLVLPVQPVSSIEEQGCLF
value kind: composite z-score

>>> print(df.to_string())
                                   compound  recorded_measurement
0  CC1CC/C=C\[C@H]2OC34C=CCN(c5ccc6ccccc6c5)C(=O)[C@H]3N(C(CO)C(C)C)C(=O)[C@@H]4C2C(=O)O1 (some centres not stated)                  1.76
1  CC(C)CNC(=O)[C@@H]1c2ccccc2C(=O)N(Cc2cc(F)cc(C(F)(F)F)c2)[C@H]1c1ccc(CO)cc1                  1.73
2  CCOc1cc(C(O)C2C=CC3C(=O)N(C)C(=O)C3N2N2CCCCC2)ccc1O (configuration not stated)                  2.56
3  COc1ccc(C(O)C2C=CC3C(=O)N(C)C(=O)C3N2N2CCCCC2)cc1 (configuration not stated)                  2.83
4  CO[C@H]1O[C@H](CO)[C@@H](OC(=O)Nc2ccc(Oc3ccccc3)cc2)[C@H](OC(=O)Nc2ccccc2-c2ccccc2)[C@@H]1OC(=O)Nc1ccccc1-c1ccccc1                  2.72
5  Cc1ccc(S[C@]2(C(=O)NC(C)C)CC(=O)N(C3Cc4ccccc4C3)[C@@H]2c2ccc(CO)cc2I)cc1                  3.32
6  COC(=O)[C@@]1(Cc2ccc(F)cc2)[C@H]2c3cc(C(=O)N4CCCC4)n(CCF)c3C[C@H]2CN1C(=O)c1ccccc1                  3.13

* * *

assay: E. coli acrAB mutant growth effects, primary screen, E. coli filamentation inducers, strain DRC39, OD650, 48 h (AID 1179);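 also: screen aims at cell division blockers that make cells filament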; conditions: E. coli DRC39 delta-acrAB growth, higher = more signal, called active from +8 up or from −8 down
Reported z-score is given for each of the following compounds.
value kind: z-score

compound	recorded measurement
CC(=O)n1cc(C(O)C2C=CC3C(=O)N(c4ccccc4)C(=O)C3N2Nc2ccccc2)c2ccccc21 (centres undefined)	-0.602
C=CCOC(=O)[C@@H]1[C@H]2C(=O)O[C@H](c3ccccc3)[C@H](c3ccccc3)N2[C@H](c2ccc(OCCOC(=O)[C@H]3C[C@H]4C(=O)N[C@@H](CCCCN(C)C)C(=O)N4[C@H]3c3cccc(OCCO)c3)cc2)[C@@]12C(=O)Nc1ccc(I)cc12	-0.0986
COc1ccccc1CN1C(=O)c2ccccc2[C@@H](C(=O)NC(C)C)[C@@H]1c1ccc(CO)cc1	0.0549
CON(C)C(=O)C=C1C[C@@H](c2cccc(Cl)c2)O[C@@H](c2cccc(Cl)c2)O1	0.134

* * *

Reported composite z-score by item:
molecular target: Torsin-1A-interacting protein 2 (Homo sapiens) (UniProt Q8NFQ8); experiment: LULL1 binders on small-molecule microarray, primary screen, cell lysate, human LULL1 lysate, 635/667 nm fluorescence (AID 1092); conditions: hLULL1 lysate binding, 635 nm fluorescence, higher = more signal;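 also: probe is lysate of COS7 cells overexpressing human LULL1; score merges per-feature 667 nm fluorescence with signal-to-noise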
value kind: composite z-score

compound	value kind	recorded measurement
CC(=O)NCCCC[C@@H]1NC(=O)[C@@H]2C[C@H](C(=O)O)[C@H](c3ccc(O)cc3)N2C1=O	composite z-score	2.17
COC(=O)[C@@]1(Cc2ccc(OC)cc2)[C@H]2c3cc(C(=O)N(C)C)n(Cc4nc5ccccc5[nH]4)c3C[C@H]2CN1C(=O)c1ccccc1	composite z-score	3.61
COc1ccc(CCNC(=O)[C@@]2(Sc3ccc(C)cc3)CC(=O)N(Cc3cc(C(F)(F)F)cc(C(F)(F)F)c3)[C@@H]2c2ccc(CO)cc2I)cc1	composite z-score	1.94
COC(=O)[C@@]1(Cc2ccc(OC)cc2)[C@H]2c3cc(C(=O)N(C)C)n(Cc4ccccc4)c3C[C@H]2CN1C(=O)c1ccccc1	composite z-score	1.84
COCCOC(=O)N1C(=O)[C@@]2(c3cc(C#CC4(O)CCCCCC4)ccc31)[C@H](C(=O)N1CCCCCCC1)[C@H]1C(=O)O[C@H](c3ccccc3)[C@H](c3ccccc3)N1[C@@H]2c1ccc(OCCO)cc1	composite z-score	3.7
CCOC(=O)C[C@H]1[C@H](OC(=O)c2ccc(-c3ccccc3)cc2)[C@@H](NC(=O)c2ccc3ccccc3n2)c2cc(OCCCO)ccc2N1C(=O)c1ccccc1	composite z-score	2.11
C=CC[C@@]12N=C(c3ccc(OCCCO)cc3)O[C@@H]1c1ccccc1N(CCS(=O)(=O)c1ccccc1)C2=O	composite z-score	2.34
COC(=O)[C@@]1(Cc2ccc(OC)cc2)[C@H]2c3cc(C(=O)N4CCCC4)n(CCc4cc5ccccc5[nH]4)c3C[C@H]2CN1C(=O)c1ccccc1	composite z-score	3.43
COCCCNC(=O)[C@@]1(Sc2ccc(C)cc2)CC(=O)N(C2Cc3ccccc3C2)[C@@H]1c1ccc(CO)cc1I	composite z-score	-0.165
CCOC(=O)C1=CC[C@@H](c2ccccc2)N(S(=O)(=O)c2ccc(C)cc2)C1	composite z-score	0.353
CCOC(=O)C1=C[C@@H](c2ccccc2)N(S(=O)(=O)c2ccc(C)cc2)[C@H]1c1cccc(Cl)c1	composite z-score	2.67
COc1ccc(C(O)C2C=CC3C(=O)N(c4ccccc4)C(=O)C3N2Nc2ccc(C#N)cc2)c2ccccc12 (centres undefined)	composite z-score	3.38
O=C1C[C@]2(c3ccc([N+](=O)[O-])cc3)C(=O)N(Cc3ccccc3)c3cc(CO)ccc3[C@H]2N1CC12CC3CC(CC(C3)C1)C2	composite z-score	0.258
CC(C)N1CC=CC23O[C@@H]4C=CCOC(=O)[C@@H]4[C@H]2C(=O)N(C(C)CO)[C@@H]3C1=O (some centres undefined)	composite z-score	-0.163

Values from PubChem BioAssay
